# Tested on: 282377-053-R-J1-PDC complex spheroids, viability;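 further: spheroids exposed to compounds for 7 days before readout; percent of vehicle DMSO control viability with 100% = untreated-like growth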
# Procedure Text: Anticancer human tumor 282377-053-R-J1-PDC patient-derived colon adenocarcinoma cell line growth inhibition [GQUAD]
# Recorded Conditions: second compound 1 µM; first compound 3.16 µM; stronger effect = lower value

Compound | viability, T/C
O=c1[nH]cc(F)c(=O)[nH]1 + Cc1[nH]c2ccc(F)cc2c1-c1nc2c3cccnc3c3ncccc3c2[nH]1 | 76.4%
CC(C)(O)C1CCC(Nc2ccc3ncc(-c4cccc(C(F)(F)F)c4)n3n2)CC1 (stereo unspecified) + Cc1[nH]c2ccc(F)cc2c1-c1nc2c3cccnc3c3ncccc3c2[nH]1 | 81.4%
CC1COCCN1c1cc(C2(S(C)(=N)=O)CC2)nc(-c2ccnc3[nH]ccc23)n1 (stereo unspecified) + Cc1cnc(CNC(=O)c2c(=O)c3ccc(N4CCCN(C)CC4)nc3n3c2sc2ccccc23)cn1 | 55.6%
Cc1cccc(N(C)C(=O)C2C(O)CCN2c2nc(C)cc(C(F)(F)F)c2C#N)c1 (stereo unspecified) + Cc1cnc(CNC(=O)c2c(=O)c3ccc(N4CCCN(C)CC4)nc3n3c2sc2ccccc23)cn1 | 65.9%
COc1cccc2c1C(=O)c1c(O)c3c(c(O)c1C2=O)CC(O)(C(=O)CO)CC3OC1CC(N)C(O)C(C)O1 (stereo unspecified) + CN(C)c1ccc(Nc2c3ccc(NC(=O)CCN4CCCC4)cc3nc3cc(NC(=O)CCN4CCCC4)ccc23)cc1 | 39.5%
CC1COCCN1c1cc(C2(O)CC3CCC(C2)O3)c2cnn(-c3ccn[nH]3)c2n1 (stereo unspecified) + CN(C)c1ccc(Nc2c3ccc(NC(=O)CCN4CCCC4)cc3nc3cc(NC(=O)CCN4CCCC4)ccc23)cc1 | 29.8%
CC1COCCN1c1cc(C2(O)CC3CCC(C2)O3)c2cnn(-c3ccn[nH]3)c2n1 (stereo unspecified) + Cc1cnc(CNC(=O)c2c(=O)c3ccc(N4CCCN(C)CC4)nc3n3c2sc2ccccc23)cn1 | 21.8%
CC(C)n1c(=O)n(C)c2cnc3cc(F)c(-c4ccc(OCCCN5CCCCC5)nc4)cc3c21 + Cc1cnc(CNC(=O)c2c(=O)c3ccc(N4CCCN(C)CC4)nc3n3c2sc2ccccc23)cn1 | 56.8%
C=CC(=O)N1CCN(c2nc(=O)n(-c3c(C)ccnc3C(C)C)c3nc(-c4c(O)cccc4F)c(F)cc23)C(C)C1 (stereo unspecified) + Cc1[nH]c2ccc(F)cc2c1-c1nc2c3cccnc3c3ncccc3c2[nH]1 | 119%
Cc1cccc(N(C)C(=O)C2C(O)CCN2c2nc(C)cc(C(F)(F)F)c2C#N)c1 (stereo unspecified) + CN(C)c1ccc(Nc2c3ccc(NC(=O)CCN4CCCC4)cc3nc3cc(NC(=O)CCN4CCCC4)ccc23)cc1 | 94.6%
COc1ccc([C@@H](O)c2cc(-c3ncnc4cc(N5CCOCC5)ccc34)c(F)cc2Cl)nn1 + Cc1[nH]c2ccc(F)cc2c1-c1nc2c3cccnc3c3ncccc3c2[nH]1 | 88.2%
